Numbers sourced from patent US12576169B2.

- METHOD_SUMMARY: n-Octanol-PBS partition coefficient (logD7.4)
- Type: physicochemical
- EXPERIMENTAL_CONDITIONS: 18F-labeled ligand; n-octanol/PBS pH=7.4; mean ± SD (n = 5)
- Procedure: Approx. 0.5 MBq of the ^18F-labeled SiFA-PSMA ligand were added into a test tube containing n-octanol (500 μL) and PBS (500 μL, pH=7.4). After vigorously shaking the two-phase mixture for 3 min at rt, the test tube was centrifuged at 9.000 rpm for 5 min to achieve quantitative phase separation. Finally, 150 μL of each layer were pipetted off and measured for activity using a gamma counter. […]
REPORTED_PROPERTY: logD7.4
Give bare numbers.

Solved entries:
CC(C)(C)[Si](F)(c1ccc(C(=O)NC[C@@H](NC(=O)[C@@H](Cc2ccccc2)NC(=O)CC[C@H](NC(=O)N[C@@H](CCC(=O)O)C(=O)O)C(=O)O)C(=O)N[C@H](CCCCNC(=O)CCC(=O)NCCC[C@@H](NC(=O)CC[C@H](NC(=O)N[C@@H](CCC(=O)O)C(=O)O)C(=O)O)C(=O)O)C(=O)O)cc1)C(C)(C)C
−2.99
CC(C)(C)[Si](F)(c1ccc(C(=O)NC[C@@H](NC(=O)CNC(=O)CC[C@H](NC(=O)N[C@@H](CCC(=O)O)C(=O)O)C(=O)O)C(=O)N[C@H](CCCCNC(=O)CCC(=O)NCCC[C@@H](NC(=O)CC[C@H](NC(=O)N[C@@H](CCC(=O)O)C(=O)O)C(=O)O)C(=O)O)C(=O)O)cc1)C(C)(C)C
−3.96

Task: What does the data say about its logD7.4? Entry: CC(C)(C)[Si](F)(c1ccc(C(=O)NC[C@@H](NC(=O)[C@@H](CC(=O)O)NC(=O)CC[C@H](NC(=O)N[C@@H](CCC(=O)O)C(=O)O)C(=O)O)C(=O)N[C@H](CCCCNC(=O)CCC(=O)NCCC[C@@H](NC(=O)CC[C@H](NC(=O)N[C@@H](CCC(=O)O)C(=O)O)C(=O)O)C(=O)O)C(=O)O)cc1)C(C)(C)C
Output: −4.02
